The measured values listed here are drawn from patent US20230143604A1.

Catalogue of Human GIPR cAMP EC50, HEK293T values
Target Desc: T1, full-length human GIPR with an N-terminal FLAG tag (human, UniProt P48546 22-466)
T1 sequence (looked up): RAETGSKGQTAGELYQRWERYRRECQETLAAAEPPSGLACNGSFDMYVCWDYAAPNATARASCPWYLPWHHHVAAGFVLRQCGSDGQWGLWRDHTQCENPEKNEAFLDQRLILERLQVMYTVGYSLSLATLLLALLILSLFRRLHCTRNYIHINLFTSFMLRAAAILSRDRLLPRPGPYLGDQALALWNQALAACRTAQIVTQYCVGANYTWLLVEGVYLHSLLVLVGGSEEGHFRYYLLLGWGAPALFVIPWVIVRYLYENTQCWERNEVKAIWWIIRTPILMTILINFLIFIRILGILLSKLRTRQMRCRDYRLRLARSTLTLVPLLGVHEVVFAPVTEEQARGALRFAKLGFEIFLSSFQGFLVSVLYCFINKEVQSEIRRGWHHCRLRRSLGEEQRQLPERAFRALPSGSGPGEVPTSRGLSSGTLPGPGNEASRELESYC
Experimental Details: cell-based or functional assay
Non-standard residues stand in square brackets, D forms with d. Groups on a side chain read outwards from the residue. No end group written: not given here. *: point of attachment. C18 diacid = O=C(O)CCCCCCCCCCCCCCCCC(=O)*; C17 diacid = O=C(O)CCCCCCCCCCCCCCCC(=O)*; NMeY = CN[C@@H](Cc1ccc(O)cc1)C(=O)O; Aib = CC(C)(N)C(=O)O
// return numeric value only (unit: pM, not printed)

Ask: Output Human GIPR cAMP EC50, HEK293T of [NMeY][Aib]EGTFISDYSIAK([G4gE-C18 diacid])DR[Aib]AQ[Aib]DFVNWLLAQKG-OH [Compound No. 80]
Reply: 0.3

Ask: Output Human GIPR cAMP EC50, HEK293T of [NMeY][Aib]EGTFISDYSIALDR[Aib]AQ[Aib]K([2OEGgEgE-C17 diacid])FVNWLLAQR-NH2 [Compound No. 8]
Reply: 0.3

Ask: Output Human GIPR cAMP EC50, HEK293T of YXEGTFISDYSIAXDRXAQKDFVEWLLAQSPG (N-methyl Tyr 1; Aib at 2,17; Lys(G5-C18 diacid) at 14; 'K1' at 20 and 'E1' at 24 as printed; C-terminal OH) [Compound No. 124]
Reply: 0.3

Ask: Output Human GIPR cAMP EC50, HEK293T of YXEGTFISDYSIAXDRXAQADFVEWLLAQRG (N-terminus H; Aib at 2,17; Lys(G5-C18 diacid) at 14; C-terminal OH) [Compound No. 149]
Reply: 0.7
